Value source: patent US20230159496A1

# Tested on: SMN2 CJ mRNA
# ASSAY DETAILS: Gene panel canonical junction qPCR assay, SMN2
# Type: cell-based
# RUN PARAMETERS: decrease in CJ mRNA levels, gene panel; read-out: SMN2 IC50
pIC50: −log10 of the molar value.
MEASUREMENT KIND: pIC50

Example results:
> print(dat)
                                   molecule  recorded.result
1  Cc1nc2c(F)cc(-c3ccc4c(=O)n(C5CCN(C)CC5)cnc4c3)cc2o1           > 7.00
2     O=c1c2ccc(-c3cn[nH]c3)cc2cnn1C1CCNCC1     5.00 to 6.00
3  Cc1cn2cc(-c3ccc4c(=O)n(C5CCNCC5)cnc4c3)cc(F)c2n1           > 7.00

-- ask Param readout= pIC50; system= SMN2 CJ mRNA; entry= Cc1cn2cc(-c3ccc4c(=O)n(C5CCNCC5)cnc4c3F)cc(F)c2n1 ; returns value.
-- reply 6.00 to 7.00

-- ask Thanks! And Cc1cn2nc(-c3ccc4c(=O)n(C5CCN(C)C5)ncc4c3)cc(C)c2n1 (stereo not shown) ?
-- reply 6.00 to 7.00

-- ask Thanks! And CN1CCC(c2ccc3c(=O)n(-c4ccc5nn(C)cc5c4)cnc3c2)CC1 ?
-- reply < 5.00

-- ask Thanks! And Cc1cn2nc(-c3cc(F)c4c(=O)n(C5CCN(C)CC5)cnc4c3)cc(C)c2n1 ?
-- reply > 7.00

-- ask Thanks! And CN1CCC(n2cnc3cc(-c4cn[nH]c4)ccc3c2=O)CC1 ?
-- reply < 5.00

-- ask Thanks! And Cc1nc2c(F)cc(-c3ccc4c(=O)n(C5CCNCC5)cnc4c3)cc2s1 ?
-- reply > 7.00

-- ask Thanks! And Cc1cn2cc(-c3ccc4c(c3)CCN(C3CCNCC3)C4=O)cc(C(F)(F)F)c2n1 ?
-- reply 6.00 to 7.00

-- ask Thanks! And Cn1cc2cc(-n3cnc4cc(N5CCNCC5)ccc4c3=O)ccc2n1 ?
-- reply 5.00 to 6.00

---

# System: HTT mRNA
# ASSAY DETAILS: Splicing assay (RT-qPCR) monitoring HTT canonical junction (CJ) and alternative junction (AJ) mRNA isoforms
# Assay type: cell-based
# RUN PARAMETERS: decrease in CJ mRNA (50% response); A673 or K562 cells, 24 h treatment, top dose 10 uM; read-out: HTT CJ AC50
# Procedure: Compounds described herein were used to modulate RNA transcript abundance in cells. The expression of a target mRNA was measured by detecting the formation of an exon-exon junction in the canonical transcript (CJ). A compound mediated exon-inclusion event was detected by observing an increase in formation of a new junction with an alternative exon (AJ). […] After treatment, the levels of the HTT mRNA targets were determined from each sample of cell lysate by cDNA synthesis followed by qPCR. […]
MEASUREMENT KIND: AC50

> print(dat)
                                   compound  measurement.kind  recorded.result
1  Cn1cc2ccc(-n3cnc4cc(NC5CCNCC5)ccc4c3=O)cc2n1              AC50          > 10 µM

-- ask Request the reported AC50 associated with Cc1nc2c(F)cc(-c3ccc4c(c3)CCN(C3CCNCC3)C4=O)cc2o1
-- reply 1 to 10 µM

-- ask Thanks! And Cc1cn2nc(-n3cnc4cc(N5CCNCC5)ccc4c3=O)cc(C)c2n1 ?
-- reply 1 to 10 µM

---

# Tested on: HTT mRNA
# ASSAY DETAILS: Splicing assay (RT-qPCR) monitoring HTT canonical junction (CJ) and alternative junction (AJ) mRNA isoforms
# Assay type: cell-based
# RUN PARAMETERS: decrease in CJ mRNA (50% response); A673 or K562 cells, 24 h treatment, top dose 10 uM; read-out: HTT CJ AC50
# AC50 per entry

-- ask Request the reported AC50 associated with Cc1cc(-c2ccc3nc(N4CCNCC4)[nH]c(=O)c3c2)cc2cn(C)nc12 [Compound 166]
-- reply 1000 to 10000 nM

-- ask Thanks! And Cc1cn2cc(-c3ccc4nc(NC5CCNCC5)[nH]c(=O)c4c3)cc(F)c2n1 [Compound 238] ?
-- reply > 10000 nM

-- ask Thanks! And Cc1cn2nc(-c3ccc4c(=O)n(C5CCN(C)CC5)ncc4c3)cc(C)c2n1 [Compound 265] ?
-- reply < 100 nM

-- ask Thanks! And Cc1cn2nc(-c3ccc4c(=O)n([C@@H]5CCN[C@H](C)C5)ncc4c3)cc(C)c2n1 [Compound 272] ?
-- reply < 100 nM

-- ask Thanks! And Cc1cn2cc(-c3cc(F)c4c(=O)n(C5CCNCC5)cnc4c3)cc(F)c2n1 [Compound 230] ?
-- reply < 100 nM

-- ask Thanks! And CN1CCN(c2ccc3nc(-c4ccc5nn(C)cc5c4)[nH]c(=O)c3c2)CC1 [Compound 108] ?
-- reply > 10000 nM

-- ask Thanks! And Cc1cn2cc(-c3cc(F)c4c(=O)n(C5CCN(C)CC5)cnc4c3)cc(F)c2n1 [Compound 231] ?
-- reply 100 to 1000 nM

-- ask Thanks! And Cc1cc(-c2ccc3nc(NC4CCN(C)CC4)[nH]c(=O)c3c2)cc2cn(C)nc12 [Compound 167] ?
-- reply > 10000 nM

---

# Tested on: HTT mRNA
# ASSAY DETAILS: Splicing assay (RT-qPCR) monitoring HTT canonical junction (CJ) and alternative junction (AJ) mRNA isoforms
# Format: cell-based
# RUN PARAMETERS: decrease in CJ mRNA (50% response); A673 or K562 cells, 24 h treatment, top dose 10 uM; read-out: HTT CJ AC50
MEASUREMENT KIND: AC50

Example results:
> print(dat)
                                   molecule   recorded.result
1  Cc1cn2nc(-c3ccc4c(=O)n(C5CCN(C)CC5)cnc4c3)cc(C)c2n1  1000 to 10000 nM
2  Cn1cc2cc(-n3cnc4cc(C5=CC6CCC(C5)N6)ccc4c3=O)ccc2n1 (stereo not shown)        > 10000 nM

-- ask Param readout= AC50; system= HTT mRNA; entry= Cc1nc2c(F)cc(-c3ccc4c(=O)n(C5CCNCC5)ncc4c3)cc2s1 ; returns value.
-- reply 1000 to 10000 nM

-- ask Thanks! And Cc1cn2cc(-c3ccc4c(=O)n(C5CCNC6(CC6)C5)cnc4c3)cc(F)c2n1 (stereo not shown) ?
-- reply 100 to 1000 nM

---

# Test system: HTT CJ mRNA
# ASSAY DETAILS: Gene panel canonical junction qPCR assay, HTT
# Assay type: cell-based
# RUN PARAMETERS: read-out: HTT IC50
pIC50: −log10 of the molar value.
MEASUREMENT KIND: pIC50

-- ask Request the reported pIC50 associated with CN1CCC(Nc2ccc3c(=O)n(-c4ccc5nn(C)cc5c4)cnc3c2)CC1
-- reply < 5.00

---

# System: SMN2 CJ mRNA
# ASSAY DETAILS: Gene panel canonical junction qPCR assay, SMN2
# Assay type: cell-based
# RUN PARAMETERS: decrease in CJ mRNA levels, gene panel; read-out: SMN2 IC50
pIC50: −log10 of the molar value.
MEASUREMENT KIND: pIC50

Example results:
> print(dat)
                                   molecule  recorded.result
1  Cc1cn2nc(-c3ccc4c(=O)n(C5CCNCC5)cnc4c3)cc(C)c2n1           > 7.00
2  Cc1cn2cc(-c3ccc4c(=O)n(C5CCNCC5)cnc4c3)c(C)cc2n1     6.00 to 7.00
3  Cc1nc2c(F)cc(-c3ccc4c(=O)n(C5CCNCC5)cnc4c3)cc2o1           > 7.00
4  Cc1cn2cc(-c3ccc4c(=O)n(C5CCNCC5)cnc4c3)ncc2n1           > 7.00
5  Cc1cn2cc(-c3ccc4c(=O)n(C5CCNCC5)ncc4c3)ncc2n1     6.00 to 7.00
6  Cc1cn2cc(-c3ccc4c(c3)CCN(C3CCNCC3)C4=O)cc(C)c2n1     6.00 to 7.00

Shifting focus to the molecule that follows.
-- ask Request the reported pIC50 associated with Cc1cn2cc(-c3ccc4c(c3)CCN(C3CCNCC3)C4=O)cc(F)c2n1
-- reply > 7.00

---

# Tested on: HTT mRNA
# ASSAY DETAILS: Splicing assay (RT-qPCR) monitoring HTT canonical junction (CJ) and alternative junction (AJ) mRNA isoforms
# Assay type: cell-based
# RUN PARAMETERS: decrease in CJ mRNA (50% response); A673 or K562 cells, 24 h treatment, top dose 10 uM; read-out: HTT CJ AC50
MEASUREMENT KIND: AC50

-- ask Request the reported AC50 associated with CN1CCC(n2cnc3cc(-c4ccc5nn(C)cc5c4)ccc3c2=O)CC1 [Compound 208]
-- reply > 10 µM

-- ask Thanks! And Cc1nc2c(F)cc(-c3ccc4c(=O)n(C5CCN(C)CC5)cnc4c3)cc2s1 [Compound 301] ?
-- reply 1 to 10 µM

-- ask Thanks! And Cn1cc2cc(-n3cnc4cc(C5CCNCC5)ccc4c3=O)ccc2n1 [Compound 172] ?
-- reply > 10 µM

-- ask Thanks! And Cc1cn2cc(-n3cnc4cc(N5CCN(C)CC5)ccc4c3=O)cc(F)c2n1 [Compound 229] ?
-- reply > 10 µM

-- ask Thanks! And CC[C@@H]1C[C@H](n2ncc3cc(-c4cc(C)c5nc(C)cn5n4)ccc3c2=O)CCN1 [Compound 304] ?
-- reply 1 to 10 µM

-- ask Thanks! And Cc1cn2nc(-c3ccc4c(=O)n(C5CCNC5)ncc4c3)cc(C)c2n1 (stereo not shown) [Compound 264] ?
-- reply 1 to 10 µM

-- ask Thanks! And Cc1cn2cc(-c3ccc4c(c3)CCN(C3CCNCC3)C4=O)cc(F)c2n1 [Compound 247] ?
-- reply 1 to 10 µM
